src = patent US20260364089A1

Let's look at some molecules and their measured IC50.
Biological target: KRas G12V (Homo sapiens, UniProt P01116, G12V)
Construct: Biotinylated KRas G12V (aa 1-169) loaded with GDP nucleotide; biotin (biotinylated)
Sequence (P01116 1-169 G12V): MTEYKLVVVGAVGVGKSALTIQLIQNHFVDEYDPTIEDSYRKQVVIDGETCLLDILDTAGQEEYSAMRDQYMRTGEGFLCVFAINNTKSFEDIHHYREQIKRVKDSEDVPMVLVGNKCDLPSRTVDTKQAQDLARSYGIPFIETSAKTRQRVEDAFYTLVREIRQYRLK
Test: SOS1-Catalyzed Nucleotide Exchange Assay, KRas G12V (Method 2)
Type: biochemical
Conditions: Method 2, B; 5 nM KRas G12V (aa 1-169, GDP-loaded), 50 nM SOS1; read-out: KRas G12V IC50 (nM) (Method 2, B)

# molecule, measured_attribute, observed_value
records = [
    ("O=C1CCCc2c(F)ccc3cc(O)cc(c23)-c2ccc3c(nc(OC[C@@]45CCCN4C[C@H](F)C5)nc3c2F)N2CCOCC(CCN1)C2 (stereo partly shown) [Compound 195a]", "IC50", "≤ 100 nM"),
]

Entry O=C1CCCc2c(F)ccc3cc(O)cc(c23)-c2ncc3c(nc(OC[C@@]45CCCN4C[C@H](F)C5)nc3c2F)N2CCOCC(CN1)C2 (stereo partly shown) [Compound 173a] — recorded IC50 = ≤ 100 nM

Entry O=C1CCCCc2c(Cl)cc(O)cc2-c2ncc3c(nc(OC[C@@]45CCCN4C[C@H](F)C5)nc3c2F)N2CCCC(O)(CCN1)C2 (single isomer, unassigned) [Compound 140c] — recorded IC50 = ≤ 100 nM

Entry Nc1cc2c(c(Cl)n1)CCCCC(=O)NCCC1(O)CCCN(C1)c1nc(OC[C@@]34CCCN3C[C@H](F)C4)nc3c(F)c-2ccc13 (stereo partly shown) [Compound 187a] — recorded IC50 = 1000 to 10000 nM

Entry O=C1CCCc2c(F)ccc3cccc(c23)-c2ncc3c(nc(OC[C@@]45CCCN4C[C@H](F)C5)nc3c2F)N2CCOCC(CN1)C2 (stereo partly shown) [Compound 193a] — recorded IC50 = 100 to 1000 nM

Entry Nc1cc2c(c(Cl)c1F)CCCCC(=O)NCC1COCCN(C1)c1nc(OC[C@@]34CCCN3C[C@H](F)C4)nc3c(F)c-2ncc13 (stereo partly shown) [Compound 182a] — recorded IC50 = 100 to 1000 nM

Entry Nc1cc2c(c(Cl)c1F)CCCCC(=O)NCCC1(O)CCCN(C1)c1nc(OC[C@@]34CCCN3C[C@H](F)C4)nc3c(F)c-2c(F)cc13 (stereo partly shown) [Compound 183a] — recorded IC50 = 100 to 1000 nM

* * *

Let's look at some compounds and their measured IC50.
Biological target: KRas G12V (Homo sapiens, UniProt P01116, G12V)
Construct: Biotinylated KRas G12V (aa 1-169) loaded with GDP nucleotide; biotin (biotinylated)
Assay: SOS1-Catalyzed Nucleotide Exchange Assay, KRas G12V (Method 2)
Assay type: biochemical
Details: Method 2, B; 5 nM KRas G12V (aa 1-169, GDP-loaded), 50 nM SOS1; read-out: KRas G12V IC50 (nM) (Method 2, B)

# compound, IC50
records = [
    ("O=C1CCCCc2c(Cl)cc(O)cc2-c2ncc3c(nc(OC[C@@]45CCCN4C[C@H](F)C5)nc3c2F)N2CCCC(O)(CCN1)C2 (single isomer, unassigned) [Compound 140b]", "≤ 100 nM"),
]

Entry Nc1cc2c(c(Cl)c1F)CCCCC(=O)NCCC1COCCN(C1)c1nc(OC[C@@]34CCCN3C[C@H](F)C4)nc3c(F)c-2ncc13 (some centres unmarked) [Compound 185a] — recorded IC50 = 100 to 1000 nM

Entry O=C1CCCc2c(F)ccc3cc(O)cc(c23)-c2ncc3c(nc(OC[C@@]45CCCN4C[C@H](F)C5)nc3c2F)N2CCCC(CCN1)C2 (some centres unmarked) [Compound 118a] — recorded IC50 = ≤ 100 nM

Entry Nc1cc2c3c(c(F)ccc3c1)CCCC(=O)NCCC1CCCN(C1)c1nc(OC[C@@]34CCCN3C[C@H](F)C4)nc3c(F)c-2ncc13 (some centres unmarked) [Compound 189a] — recorded IC50 = 100 to 1000 nM

Entry O=C1CCCCc2c(Cl)cc3[nH]ncc3c2-c2ccc3c(nc(OC[C@@]45CCCN4C[C@H](F)C5)nc3c2F)N2CCCC(CCN1)C2 (single isomer, unassigned) [Compound 202a] — recorded IC50 = ≤ 100 nM
